Would you kindly list melting point for each of these molecules?

Answered cases to consult:
c1cncc(CNC2=NCCS2)c1; 90 to 92 °C
NS(=O)(=O)C1CCOCC1; 129 to 131 °C
Clc1cc2nc(-c3ccccc3)nn2cn1; 225 to 227 °C
Nc1nc(CN2CCNCC2)nc2ccccc12; 213 to 215 °C
CCOC(=O)c1ccc(S(=O)(=O)Cl)c(Br)c1; 48 to 50 °C

Items follow; give melting point for each.
1. Nc1ccc2c(c1)oc1ccccc12
2. NS(=O)(=O)c1ccccc1Cn1ccnc1

-- reply
89 to 91 °C
149 to 151 °C

----------
Recorded endpoint: melting point

Answered cases to consult:
CS(=O)(=O)NCCc1ccc(C(=O)CCl)s1; 110 to 112 °C
O=C(O)Cc1csc(Cc2ccc(F)cc2)n1; 137 to 139 °C
CC1(C(=O)O)CCCN(C(=O)c2ccccc2)C1 (stereo not given); 151 to 153 °C
Nc1ccc(-c2ncc3n2CCCC3)cc1; 182 to 184 °C

Items follow; give melting point for each.
1. O=C(NCc1ccco1)OCC(F)(F)F
2. COc1ccc(-c2noc(CCl)n2)c(OC)c1
3. CS(=O)(=O)c1cccc(C(=O)Cl)c1
4. CCn1c(N)c(-c2csc(C)n2)c(=O)[nH]c1=O

-- reply
1. 35 to 37 °C
2. 76 to 80 °C
3. 85 to 87 °C
4. 250 to 252 °C

Items follow; give melting point for each.
1. CNc1nc2ccccc2o1
2. Cc1ccc(NS(=O)(=O)c2c[nH]c(C(=O)O)c2)c(C)c1
3. O=C(O)c1ccnc(OCC(F)(F)F)c1

-- reply
99 to 101 °C
218 to 220 °C
109 to 111 °C

----------
Would you kindly list melting point for each of these compounds?

NC(=S)NN=Cc1cccs1; 161 to 163 °C
C#Cc1cccc(NC(=O)CBr)c1; 118 to 120 °C
NNc1ncnc2cc(-c3ccc(F)cc3)sc12; 237 to 239 °C
O=[N+]([O-])c1ccc(C2CN=C(Nc3ccccc3)S2)cc1 (stereo not drawn); 136 to 138 °C
Cc1cnc(C(=O)O)c(C)c1; 150 to 152 °C
COc1cc(CCl)ccc1[N+](=O)[O-]; 49 to 51 °C
Cn1cc(C(=O)NCC2CCNCC2)cn1; 175 to 177 °C
O=C(O)c1ccc2c(c1)C(=O)NS2(=O)=O; 279 to 281 °C
O=C(O)c1c(C2CC2)nc2sccn12; 163 to 165 °C
NC(=O)N1CCc2ccccc2C1; 170 to 172 °C

Items follow; give melting point for each.
1. CC1(C)NC(=O)c2ccccc2O1
2. O=C(O)CC(Br)C(=O)c1ccc(F)cc1 (stereo not drawn)
3. NC(=O)Nc1ccc(Br)cc1C(=O)O
4. Cc1c(C2CC2)nc2ccc(Br)cc2c1C(=O)O
5. C=CCn1nnnc1S
6. O=C(CC(=O)Nc1ccccc1F)Nc1ccccc1F
7. CN(C)c1ccc(-c2cncc(C(=O)O)c2)cc1

-- reply
1. 131 to 133 °C
2. 128 to 131 °C
3. 171 to 173 °C
4. 218 to 220 °C
5. 66 to 68 °C
6. 158 to 160 °C
7. 284 to 286 °C

Items follow; give melting point for each.
1. CC(C)(C)OC(=O)N1CCC(I)CC1
2. Cc1ccc(-c2nn(-c3ccccc3)cc2C=CC(=O)O)cc1
3. Oc1ccccc1SC(F)(F)F
4. COc1cc(CC#N)cc(Br)c1OCC(F)(F)F
5. CN1C(=O)c2ccc(C(=O)O)cc2C1=O
6. O=C(O)C1CC(=O)N(CCOc2ccccc2Cl)C1 (stereo not drawn)
7. O=C1NCCc2c(Br)cccc21
8. Cc1ccc(N2N=C(Br)CC2C(=O)O)cc1 (stereo not drawn)

-- reply
1: 44 to 46 °C; 2: 220 to 222 °C; 3: 32 to 34 °C; 4: 116 to 118 °C; 5: 173 to 175 °C; 6: 138 to 140 °C; 7: 109 to 111 °C; 8: 79 to 81 °C

Items follow; give melting point for each.
1. CC(=O)Nc1ccc2c(c1)CN(C(=O)OC(C)(C)C)CC2
2. O=S(=O)(c1ccc(Cl)nc1)N1CCCC1
3. O=Cc1cc(Cl)cc([N+](=O)[O-])c1O

-- reply
1. 110 to 112 °C
2. 149 to 151 °C
3. 105 to 107 °C

----------
Would you kindly list melting point for each of these compounds?

Items follow; give melting point for each.
1. Cc1cc(=O)[nH]c(-c2ccc(N)cc2)n1
2. CC1(O)CCc2ccccc21 (stereo not drawn)

-- reply
1. 222 to 224 °C
2. 56 to 58 °C

Items follow; give melting point for each.
1. NS(=O)(=O)c1ccc(C(F)(F)F)cn1
2. COc1cccc(C2(C)NC(=O)NC2=O)c1 (stereo not drawn)
3. Sc1nnc(-c2ccncc2)o1
4. O=C(O)CCS(=O)(=O)Cc1cccc(Br)c1
5. O=Cc1c[nH]nc1-c1cccnc1
6. CCOC(=O)c1c(C)c2c(=O)[nH]nc(S)n2c1C
7. O=C(O)c1cnns1

-- reply
["174 to 176 °C", "119 to 121 °C", "270 to 275 °C", "156 to 158 °C", "208 to 210 °C", "218 to 220 °C", "103 to 105 °C"]

Items follow; give melting point for each.
1. Cc1ccc(-n2cccc2)c(C(=O)O)c1
2. Clc1ccc(Cl)c(-c2cc[nH]n2)c1
3. CC(Cl)C(=O)NC(C)c1ccccc1 (stereo not drawn)
4. Fc1ccc(OCC2CNCCO2)cc1F (stereo not drawn)

-- reply
126 to 128 °C
143 to 145 °C
89 to 91 °C
49 to 51 °C

Items follow; give melting point for each.
1. Nc1snc2ccc([N+](=O)[O-])cc12
2. O=C(Nc1nccs1)C1CCCNC1 (stereo not drawn)
3. O=C(O)/C=C/c1cccc(OCc2ccccc2)c1

-- reply
1. 198 to 200 °C
2. 178 to 180 °C
3. 151 to 153 °C

----------
Would you kindly list melting point for each of these molecules?

Answered cases to consult:
CC(=O)c1ccc(C(F)(F)C(=O)O)n1C; 115 to 117 °C
O=C1CCc2c(Cl)cc(Cl)cc21; 109 to 111 °C
COc1ccc(C(=O)NNC(=O)CCl)cc1OC; 173 to 175 °C

Items follow; give melting point for each.
1. COc1ccccc1NC1=NCCCS1
2. CCNS(=O)(=O)c1ccccc1OC
3. CNC(=O)c1cccc(O)c1
4. O=c1c2c(-c3ccco3)csc2nc(S)n1-c1ccccc1
5. O=C(O)c1csc(-c2ccc([N+](=O)[O-])cc2)n1
6. Clc1cc(CBr)c2ncccc2c1
7. Nc1nc(CCl)nc2oc(-c3ccccc3)c(-c3ccccc3)c12
8. O=C(O)c1cc(N2CCCC2=O)cc(C(F)(F)F)c1

-- reply
["83 to 85 °C", "84 to 86 °C", "108 to 110 °C", "242 to 244 °C", "198 to 200 °C", "116 to 118 °C", "201 to 203 °C", "188 to 190 °C"]

Items follow; give melting point for each.
1. c1cc(-c2ncc[nH]2)ccn1
2. COc1cccc(C(N)CC(=O)O)c1 (stereo not drawn)

-- reply
1: 208 to 210 °C; 2: 223 to 225 °C

----------
Recorded endpoint: melting point

CC(Oc1ccc(F)c(F)c1)C(=O)O (centres undefined); 39 to 41 °C
COc1ccc(NS(=O)(=O)c2cc(C(=O)O)ccc2F)cc1; 209 to 211 °C
CC1CC1c1cc(N)n(-c2ccccc2)n1 (centres undefined); 92 to 94 °C
Cc1cccc(CC(N)=S)c1; 75 to 77 °C
O=Cc1c[nH]nc1-c1cccc(Cl)c1; 139 to 141 °C
O=C(CBr)c1ccc(Cl)s1; 113 to 115 °C
O=C(O)c1cc(Cl)c[nH]1; 182 to 184 °C
O=C(O)c1ccc(S(=O)(=O)NCc2cccs2)cc1; 232 to 234 °C
CC1(O)CCNC1 (centres undefined); 37 to 39 °C
CC(=O)c1ccc(OCC#N)cc1; 82 to 84 °C

Items follow; give melting point for each.
1. Oc1cccc(-n2ccnc2)c1
2. CN1CCC(O)(c2ccccc2)CC1

-- reply
1: 172 to 174 °C; 2: 111 to 113 °C

----------
Recorded endpoint: melting point

Nc1ccccc1CN1CCC(CO)CC1; 79 to 81 °C
CC(=O)c1cc(N)cc(C(C)=O)c1; 139 to 141 °C

Items follow; give melting point for each.
1. Cn1c(N)c(C(=O)CC#N)c(=O)n(C)c1=O
2. CCCN(CCC)C(=O)C1C2C=CC(C2)C1C(=O)O (centres undefined)
3. N#CCc1cc(Cl)ccc1Cl
4. O=S(=O)(CCN1CCNCC1)c1ccc(Br)cc1
5. O=C(O)Cc1ccc(S(=O)(=O)N2CCCC2)s1
6. O=C(O)CCc1ncc(-c2ccccc2)o1
7. Cc1cc(CO)ccc1Cl

-- reply
260 to 262 °C
113 to 115 °C
92 to 94 °C
99 to 101 °C
262 to 264 °C
148 to 150 °C
42 to 44 °C
